Source listed as patent US11236105B2.

# Tested on: TNF-α
# assayInfo: Cell-Based TNFα Inhibition Assay (PBMCs induced with LPS, Meso Scale)
# setupConditions: PBMC, 1 μM compound; PBMCs pretreated 1 hr, induced with LPS 100 ng/mL 18-24 hrs; supernatant TNF-α
endpointLabel: inhibition at 1 µM

Query: Name the recorded inhibition at 1 µM for CCOc1cc([C@@H](CS(C)(=O)=O)N2Cc3c(NC(=O)C4CC4)csc3C2=O)ccc1OC [Compound 32] .
Result: 20 to 40%

Query: Name the recorded inhibition at 1 µM for CC(=O)Nc1scc2c1C(=O)N([C@H](CS(=O)(=O)N(C)C)c1ccc3c(c1)OCO3)C2=O [Compound 27] .
Result: < 20%

Query: Name the recorded inhibition at 1 µM for COCC(=O)Nc1csc2c1C(=O)N([C@@H](CS(C)(=O)=O)c1ccc3c(c1)OCO3)C2=O [Compound 26] .
Result: < 20%

Query: Name the recorded inhibition at 1 µM for CCOc1cc([C@@H](CS(C)(=O)=O)N2C(=O)c3scc(NC(=O)C4CC4)c3C2=O)ccc1OC [Compound 11] .
Result: 20 to 40%

Query: Name the recorded inhibition at 1 µM for CCOc1cc([C@@H](CS(=O)(=O)N(C)C)N2C(=O)c3csc(NC(C)=O)c3C2=O)ccc1OC [Compound 15] .
Result: < 20%

Query: Name the recorded inhibition at 1 µM for CCOc1cc([C@@H](CS(C)(=O)=O)N2C(=O)c3csc(NC(C)=O)c3C2=O)ccc1OC [Compound 1] .
Result: > 60%

Query: Name the recorded inhibition at 1 µM for CS(=O)(=O)C[C@@H](c1ccc2c(c1)OCO2)N1C(=O)c2csc(NC(=O)C(F)(F)F)c2C1=O [Compound 17] .
Result: < 20%

Query: Name the recorded inhibition at 1 µM for CCOc1cc([C@@H](CS(C)(=O)=O)N2C(=O)c3csc(NC(=O)COC)c3C2=O)ccc1OC [Compound 3] .
Result: > 60%

Query: Name the recorded inhibition at 1 µM for COCC(=O)Nc1csc2c1C(=O)N([C@H](CS(C)(=O)=O)c1ccc3c(c1)OCO3)C2=O [Compound 25] .
Result: 20 to 40%

Query: Name the recorded inhibition at 1 µM for CCOc1cc([C@@H](CS(C)(=O)=O)N2Cc3c(NC(=O)COC)csc3C2=O)ccc1OC [Compound 31] .
Result: < 20%

Query: Name the recorded inhibition at 1 µM for CS(=O)(=O)C[C@H](c1ccc2c(c1)OCO2)N1C(=O)c2csc(NC(=O)C3CC3)c2C1=O [Compound 13] .
Result: < 20%

Query: Name the recorded inhibition at 1 µM for CC(=O)Nc1csc2c1C(=O)N([C@H](CS(C)(=O)=O)c1ccc3c(c1)OCO3)C2=O [Compound 23] .
Result: 40 to 60%

Query: Name the recorded inhibition at 1 µM for CCOc1cc([C@@H](CS(C)(=O)=O)N2C(=O)c3csc(NC(=O)C(CC)CC)c3C2=O)ccc1OC [Compound 6] .
Result: > 60%

Query: Name the recorded inhibition at 1 µM for CCOc1cc([C@@H](CS(C)(=O)=O)N2C(=O)c3scc(NC(=O)COC)c3C2=O)ccc1OC [Compound 10] .
Result: 40 to 60%

Query: Name the recorded inhibition at 1 µM for CCOc1cc([C@@H](CS(C)(=O)=O)N2Cc3c(NC(=O)C(F)(F)F)csc3C2=O)ccc1OC [Compound 30] .
Result: < 20%

---

# Test system: TNF-α
# assayInfo: Cell-Based TNFα Inhibition Assay (PBMCs induced with LPS, Meso Scale)
# setupConditions: PBMC, 1 μM compound; PBMCs pretreated 1 hr, induced with LPS 100 ng/mL 18-24 hrs; supernatant TNF-α
endpointLabel: inhibition at 1 µM

Query: Name the recorded inhibition at 1 µM for CC(=O)Nc1scc2c1C(=O)N([C@H](CS(C)(=O)=O)c1ccc3c(c1)OCCO3)C2=O .
Result: < 20%

Query: Name the recorded inhibition at 1 µM for CCOc1cc([C@H](CS(=O)(=O)N(C)C)N2C(=O)c3csc(NC(C)=O)c3C2=O)ccc1OC .
Result: < 20%

Query: Name the recorded inhibition at 1 µM for CCOc1cc([C@@H](CS(C)(=O)=O)N2C(=O)c3csc(NC(=O)C4CC4)c3C2=O)ccc1OC .
Result: > 60%

Query: Name the recorded inhibition at 1 µM for CS(=O)(=O)C[C@H](c1ccc2c(c1)OCO2)N1C(=O)c2csc(NC(=O)C(F)(F)F)c2C1=O .
Result: < 20%

Query: Name the recorded inhibition at 1 µM for CCOc1cc([C@@H](CS(C)(=O)=O)N2C(=O)c3csc(NC(=O)C(C)(C)C)c3C2=O)ccc1OC .
Result: > 60%

Query: Name the recorded inhibition at 1 µM for CC(=O)Nc1scc2c1C(=O)N([C@H](CS(C)(=O)=O)c1ccc3c(c1)OCO3)C2=O .
Result: < 20%

Query: Name the recorded inhibition at 1 µM for CCOc1cc([C@@H](CS(C)(=O)=O)N2C(=O)c3csc(N(C(=O)C4CC4)C(=O)C4CC4)c3C2=O)ccc1OC .
Result: 40 to 60%

Query: Name the recorded inhibition at 1 µM for CCOc1cc([C@@H](CS(C)(=O)=O)N2C(=O)c3csc(NC(=O)C(F)(F)F)c3C2=O)ccc1OC .
Result: < 20%

Query: Name the recorded inhibition at 1 µM for CCOc1cc([C@@H](CS(C)(=O)=O)N2C(=O)c3scc(NC(=O)C(F)(F)F)c3C2=O)ccc1OC .
Result: 40 to 60%

Query: Name the recorded inhibition at 1 µM for CS(=O)(=O)C[C@H](c1ccc2c(c1)OCO2)N1C(=O)c2scc(NC(=O)C(F)(F)F)c2C1=O .
Result: < 20%

Query: Name the recorded inhibition at 1 µM for CCOc1cc([C@@H](CS(C)(=O)=O)N2C(=O)c3csc(NC(=O)C(C)C(F)(F)F)c3C2=O)ccc1OC (some centres unmarked) .
Result: > 60%
